Test system: MDA-MB-435 cells
assay_info: Cell proliferation CCK8 assay in MDA-MB-435 cells
Type: cell-based
test_conditions: Homo sapiens, 72 h, read-out: IC50 of cell growth inhibition
measurement_kind: pIC50
Friendly reminder that pIC50 comes from taking -log10 of the concentration in mol/L.

Prompt: Please report the measured pIC50 for Cc1ncsc1-c1ccc(CNC(=O)[C@@H]2C[C@@H](O)CN2C(=O)[C@H](NC(=O)CCOCCOCCOCCOCCOCCC(=O)NCCCOC(=O)NC(Nc2ncccn2)C(Cl)(Cl)Cl)C(C)(C)C)cc1 (stereo partly shown) [CP5V]
Completion: 5.70

====

System: MDA-MB-231 cells
assay_info: Cell proliferation CCK8 assay in MDA-MB-231 cells
Format: cell-based
test_conditions: Homo sapiens, 72 h, read-out: IC50 of cell growth inhibition
measurement_kind: IC50
Could you give the number and then its unit, please?

Prompt: Tell me its IC50 given Cc1ncsc1-c1ccc(CNC(=O)[C@@H]2C[C@@H](O)CN2C(=O)[C@H](NC(=O)CCOCCOCCOCCOCCOCCC(=O)NCCCOC(=O)NC(Nc2ncccn2)C(Cl)(Cl)Cl)C(C)(C)C)cc1 (stereo partly shown) [CP5V] as the entry.
Completion: 2600 nM
